Biological target: T1, P6bH1
T1 chain: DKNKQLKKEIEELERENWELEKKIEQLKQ
Test: two-hybrid library CCNG1;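 also: natural log of median RNA to DNA barcode read ratio; higher means stronger binding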
QUANTITY KIND: interaction score

DEIQQLKQKIQELEQENQELKWKIQELEQ [4H797-bN]    0.0343
DEIKQLEKENEELERENWELEKEIEQLEQ [P1bH1]    -1.2
DENKQLEKKIEELKRKNWELKKEIEQLEQ [P5bH1]    1.31
DKIKQLKKKNEELKRKNWELKKKIEQLKQ [P2bH1]    -1.16
DKNKQLKKKIEELKRKIWELKKENEQLEQ [P12bH1]    -0.251

I. DENKQLEKEIEELEREIWELEKKNEQLKQ [P11bH1]
II. DKIAQLEQENAELKQEIAELKWKIAQLEQ [4H2253-bA]
Query :: When I and II are compared, which has the higher number for interaction score? # reply format: chosen label
Result :: I
(I: 0.725, II: -1.05)
